# assay.comment: NCI Yeast Anticancer Drug Screen. Data for the rad50EPP+ strain (AID 151)
# condition.context: S. cerevisiae rad50 mutant strain, at 100.0 µM
This is part of a sample that, as a whole, favours compounds with a hit. Of some 79,000 tested, about 15% had one in any assay. The source made the active and inactive calls. Rule as the data show it: active = growth inhibition above about 70%; inactive = the rest.
Outcomes you can answer with include only these: active, inactive

Solved entries:
Cc1ccc(N=Nc2ccc(O)c(C)c2)cc1 : active
COC(=O)c1cccc(C)c1C(=O)c1c(C)cc(C)cc1C : active
CCOc1ccc(C(=O)CCC(=O)O)c(C)c1 : inactive

Switching to the query record.
Look up the recorded call for CC(=O)C1=C(O)C2(C)c3c(O)c(C)c(O)c(C(C)=O)c3OC2(Sc2ccccc2)CC1=O (centres undefined) in this test. inactive
